# collection of IC50 values tested on human ACC2 (Homo sapiens, UniProt O00763)
# Sequence (O00763 129-2458 limits assumed): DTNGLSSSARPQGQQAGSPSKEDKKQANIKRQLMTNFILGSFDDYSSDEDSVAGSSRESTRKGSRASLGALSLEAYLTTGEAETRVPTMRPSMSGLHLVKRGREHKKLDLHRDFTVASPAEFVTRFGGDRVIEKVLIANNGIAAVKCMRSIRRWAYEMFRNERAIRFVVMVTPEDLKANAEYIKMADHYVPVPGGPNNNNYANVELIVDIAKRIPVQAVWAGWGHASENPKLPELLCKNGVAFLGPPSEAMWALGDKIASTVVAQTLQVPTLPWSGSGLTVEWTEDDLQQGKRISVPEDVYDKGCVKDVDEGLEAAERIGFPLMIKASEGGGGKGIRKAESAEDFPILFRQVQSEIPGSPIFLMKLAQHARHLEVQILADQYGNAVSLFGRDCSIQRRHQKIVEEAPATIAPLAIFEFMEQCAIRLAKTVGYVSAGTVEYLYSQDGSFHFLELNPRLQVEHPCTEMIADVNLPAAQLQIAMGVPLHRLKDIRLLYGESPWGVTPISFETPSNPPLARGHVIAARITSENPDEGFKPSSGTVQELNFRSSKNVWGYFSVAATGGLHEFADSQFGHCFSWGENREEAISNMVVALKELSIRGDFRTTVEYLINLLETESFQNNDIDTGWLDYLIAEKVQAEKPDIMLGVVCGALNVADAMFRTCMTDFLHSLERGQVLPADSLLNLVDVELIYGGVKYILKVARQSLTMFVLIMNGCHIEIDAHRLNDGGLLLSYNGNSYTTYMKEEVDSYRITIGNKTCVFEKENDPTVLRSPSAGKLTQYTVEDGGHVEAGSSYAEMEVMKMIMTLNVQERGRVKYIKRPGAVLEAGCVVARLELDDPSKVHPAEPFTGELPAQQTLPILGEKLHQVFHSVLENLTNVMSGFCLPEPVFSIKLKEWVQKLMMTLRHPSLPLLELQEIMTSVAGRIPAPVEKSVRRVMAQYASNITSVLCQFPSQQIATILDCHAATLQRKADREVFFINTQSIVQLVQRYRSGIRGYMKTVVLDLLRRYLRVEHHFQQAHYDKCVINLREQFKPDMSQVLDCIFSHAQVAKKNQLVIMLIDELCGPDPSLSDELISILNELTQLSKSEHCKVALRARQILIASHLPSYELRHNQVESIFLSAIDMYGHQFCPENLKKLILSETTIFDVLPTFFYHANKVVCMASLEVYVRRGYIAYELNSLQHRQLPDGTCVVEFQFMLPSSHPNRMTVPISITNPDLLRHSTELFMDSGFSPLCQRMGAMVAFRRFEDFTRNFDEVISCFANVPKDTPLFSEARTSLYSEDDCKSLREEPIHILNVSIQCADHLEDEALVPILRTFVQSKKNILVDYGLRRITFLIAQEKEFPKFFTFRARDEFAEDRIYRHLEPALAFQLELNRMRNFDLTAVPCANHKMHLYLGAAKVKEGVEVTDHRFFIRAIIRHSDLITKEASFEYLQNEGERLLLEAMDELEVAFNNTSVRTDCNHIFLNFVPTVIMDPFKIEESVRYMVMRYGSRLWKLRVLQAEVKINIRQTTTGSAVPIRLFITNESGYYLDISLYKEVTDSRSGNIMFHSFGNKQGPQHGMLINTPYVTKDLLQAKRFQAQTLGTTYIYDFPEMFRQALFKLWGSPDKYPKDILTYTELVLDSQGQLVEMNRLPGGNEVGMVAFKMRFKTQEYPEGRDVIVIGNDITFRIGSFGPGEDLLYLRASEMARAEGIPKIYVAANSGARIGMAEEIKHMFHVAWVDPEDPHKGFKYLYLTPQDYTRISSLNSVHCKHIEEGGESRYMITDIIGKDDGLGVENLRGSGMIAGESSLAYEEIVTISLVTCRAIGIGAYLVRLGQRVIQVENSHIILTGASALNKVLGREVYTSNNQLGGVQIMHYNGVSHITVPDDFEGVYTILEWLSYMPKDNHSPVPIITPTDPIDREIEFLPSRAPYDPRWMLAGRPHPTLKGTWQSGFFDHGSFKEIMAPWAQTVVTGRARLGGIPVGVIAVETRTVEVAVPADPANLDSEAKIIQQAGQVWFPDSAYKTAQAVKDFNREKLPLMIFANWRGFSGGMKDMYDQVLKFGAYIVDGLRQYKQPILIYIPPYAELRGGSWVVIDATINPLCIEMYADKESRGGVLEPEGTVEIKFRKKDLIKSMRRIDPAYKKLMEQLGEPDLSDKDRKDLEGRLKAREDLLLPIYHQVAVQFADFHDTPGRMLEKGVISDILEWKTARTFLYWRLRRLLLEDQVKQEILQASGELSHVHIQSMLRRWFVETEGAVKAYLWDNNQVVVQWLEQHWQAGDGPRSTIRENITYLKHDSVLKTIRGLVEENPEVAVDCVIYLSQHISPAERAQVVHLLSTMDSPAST
endpoint_label: IC50 (nM)

| compound | measured_result |
| --- | --- |
| CC(C(=O)NC1CC1)c1ccc(C2CCN(c3ccc(OCC4CC4)cc3)CC2)cc1 (stereo not drawn) [Example 1.14] | 80 |
| CCNC(=O)C(C)c1ccc(C2CCN(c3ccnc(OCC)c3)CC2)cc1 (stereo not drawn) [Example 1.6] | 510 |
| CCNC(=O)C(C)c1ccc(C2CCN(c3ccnc(N(C)C)n3)CC2)cc1 (stereo not drawn) [Example 5.2] | 630 |
| CN(c1nccc(N2CCC(c3ccc(CC(=O)Nc4ccccc4)cc3)CC2)n1)C1CCCC1 [Example 4.11] | 720 |

(A) CCCOc1ccc(N2CCC(c3ccc(C(C)C(=O)NC4CC4)cc3)CC2)c(C#N)c1 (stereo not drawn) [Example 3.4]
(B) CCOc1ccc(N2CCC(c3ccc(C(C)C(=O)N(C)CC)cc3)CC2)cc1 (stereo not drawn) [Example 4.5]
Ask: Would you kindly point out which of A and B has the smaller IC50 figure? When you have decided, please share the label of that item.
Reply: A
(A: 120 nM, B: 5210 nM)

(1) CCNC(=O)C(C)c1ccc(N2CCC(c3cccc(OC(C)C)c3)CC2)cc1 (stereo not drawn) [Example 7.12]
(2) CCNC(=O)C(C)c1ccc(N2CCC(c3ccc(OCC4CC4)cc3F)CC2)cc1 (stereo not drawn) [Example 7.2]
Ask: Would you kindly point out which of 1 and 2 has the smaller IC50 figure? When you have decided, please share the label of that item.
Reply: 2

(1) CCNC(=O)C(C)c1ccc(N2CCC(c3cccc(OCC)c3)CC2)cc1 (stereo not drawn) [Example 7.13]
(2) CCNC(=O)C(C)c1ccc(N2CCC(c3ccc(OCC)cc3)CC2)cc1 (stereo not drawn) [Example 7.1]
Ask: Would you kindly point out which of 1 and 2 has the smaller IC50 figure? When you have decided, please share the label of that item.
Reply: 2

(I) CCNC(=O)C(C)c1ccc(C2CCN(c3ccc(OCC4CC4)cc3)CC2)cc1 (stereo not drawn) [Example 1.3]
(II) CCNC(=O)C(C)c1ccc(C2CCN(c3ccc(OC(C)CC)cc3)CC2)cc1 (stereo not drawn) [Example 1.4]
Ask: Would you kindly point out which of I and II has the smaller IC50 figure? When you have decided, please share the label of that item.
Reply: I
(I: 240 nM, II: 890 nM)

(A) CCNC(=O)C(C)c1ccc(C2CCN(c3ccc(OC4CC4)cc3OC)CC2)cc1 (stereo not drawn) [Example 1.11]
(B) COCCNC(=O)Cc1ccc(C2CCN(c3ccnc(N(C)C4CCCC4)n3)CC2)cc1 [Example 4.14]
Ask: Which value of IC50 is numerically greater: that of A or that of B ? When you have decided, please share the label of that item.
Reply: B
(B: 4830 nM, A: 520 nM)

(1) CCNC(=O)C(C)c1ccc(C2CCN(c3ccnc(N(C)C4CCCC4)n3)CC2)cc1 (stereo not drawn) [Example 5.1]
(2) CCNC(=O)C(C)c1ccc(N2CCC(c3cccc(OC4CCC4)c3)CC2)cc1 (stereo not drawn) [Example 7.8]
(3) CCNC(=O)C(C)c1ccc(C2CCN(c3ccc(OC4CC4)cc3)CC2)cc1 (stereo not drawn) [Example 1.2]
Ask: Rank descending by IC50. Please list the labels in the order you were asked to rank them.
Reply: 2, 1, 3
(2: 1650 nM, 1: 370 nM, 3: 210 nM)

(P) CCNC(=O)C(C)c1ccc(C2CCN(c3ccc(OCC)cc3F)CC2)cc1 (stereo not drawn) [Example 1.12]
(Q) CCOc1ccc(C2CCN(c3ccc(C(C)C(=O)NC4CC4)cc3)CC2)cc1 (stereo not drawn) [Example 7.3]
Ask: Would you kindly point out which of P and Q has the smaller IC50 figure? When you have decided, please share the label of that item.
Reply: P
(P: 330 nM, Q: 890 nM)

(1) CCNC(=O)C(C)c1ccc(N2CCC(c3ccc(OC(C)C)cc3)CC2)cc1 (stereo not drawn) [Example 7.7]
(2) CCOc1ccc(N2CCC(c3ccc(C(C)C(=O)NC4CC4)cc3)CC2)cc1 (stereo not drawn) [Example 4.1]
Ask: Would you kindly point out which of 1 and 2 has the smaller IC50 figure? When you have decided, please share the label of that item.
Reply: 2
